- Assay system: Angiotensin Converting Enzyme (Homo sapiens, UniProt P12821)
- Sequence (P12821 30-1306, species assumed): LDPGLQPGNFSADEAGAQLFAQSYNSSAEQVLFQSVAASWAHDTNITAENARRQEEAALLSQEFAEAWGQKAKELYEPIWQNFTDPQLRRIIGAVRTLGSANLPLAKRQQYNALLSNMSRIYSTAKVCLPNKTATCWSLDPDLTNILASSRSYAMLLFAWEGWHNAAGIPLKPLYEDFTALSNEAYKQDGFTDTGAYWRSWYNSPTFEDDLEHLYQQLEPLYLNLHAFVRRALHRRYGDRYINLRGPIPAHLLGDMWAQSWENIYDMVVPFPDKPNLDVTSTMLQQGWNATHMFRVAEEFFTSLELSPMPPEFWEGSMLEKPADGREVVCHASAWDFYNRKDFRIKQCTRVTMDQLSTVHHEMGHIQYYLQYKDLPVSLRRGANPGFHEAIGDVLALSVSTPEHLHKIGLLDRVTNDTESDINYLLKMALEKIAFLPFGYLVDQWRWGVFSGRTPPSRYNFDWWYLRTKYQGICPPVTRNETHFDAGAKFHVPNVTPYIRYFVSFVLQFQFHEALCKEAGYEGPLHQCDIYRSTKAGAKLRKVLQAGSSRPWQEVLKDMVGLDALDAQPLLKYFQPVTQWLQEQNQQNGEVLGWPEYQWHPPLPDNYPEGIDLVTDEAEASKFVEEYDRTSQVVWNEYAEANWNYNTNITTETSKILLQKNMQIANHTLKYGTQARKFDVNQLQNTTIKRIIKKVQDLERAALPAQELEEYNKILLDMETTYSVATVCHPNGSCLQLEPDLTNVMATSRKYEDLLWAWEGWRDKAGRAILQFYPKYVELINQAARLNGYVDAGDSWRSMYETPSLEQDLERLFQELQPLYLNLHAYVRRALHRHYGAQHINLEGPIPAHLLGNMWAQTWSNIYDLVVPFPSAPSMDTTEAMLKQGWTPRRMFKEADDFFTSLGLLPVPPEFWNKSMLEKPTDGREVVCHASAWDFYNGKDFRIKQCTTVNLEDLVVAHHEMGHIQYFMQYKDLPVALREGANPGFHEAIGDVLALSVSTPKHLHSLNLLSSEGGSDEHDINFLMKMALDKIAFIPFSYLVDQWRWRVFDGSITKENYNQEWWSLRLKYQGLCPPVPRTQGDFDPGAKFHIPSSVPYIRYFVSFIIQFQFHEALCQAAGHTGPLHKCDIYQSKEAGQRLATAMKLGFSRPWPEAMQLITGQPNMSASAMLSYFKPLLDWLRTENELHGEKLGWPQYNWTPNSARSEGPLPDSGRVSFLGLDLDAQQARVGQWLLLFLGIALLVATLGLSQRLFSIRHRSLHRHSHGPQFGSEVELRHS
- Measurement description: ACE inhibitory activity with Hippuryl-His-Leu substrate, absorbance at 228 nm
- Format: biochemical
- Condition set: peptides having Met-Ala-Pro as a partial structure, same method as Example 2; Table 2
Where no end group is shown, it is not given here.
Property measured: pIC50
pIC50 is defined as minus the log10 of a concentration measured in mol/L.

Exercise: Given the entry RMAPP [Arg-Met-Ala-Pro-Pro] , report its measured pIC50.
Key: 3.59

---

- Assay system: Angiotensin Converting Enzyme (Homo sapiens, UniProt P12821)
- Measurement description: ACE inhibitory activity with Hippuryl-His-Leu substrate, absorbance at 228 nm
- Assay type: biochemical
- Condition set: synthetic peptide, 0.1 M borate buffer pH 8.3, 37° C., 60 minutes; Table 1
Where a SMILES comes first, the peptide text is derived from it.
Answer each item with its documented IC50.
Reply numerically in µM, unit not repeated.

Exercise: Given the entry CC[C@H](C)[C@H](N)C(=O)N[C@@H](CCC(N)=O)C(=O)N[C@@H](C)C(=O)O [Ile-Gln-Ala] (H-Ile-Gln-Ala-OH; N-terminus and C-terminus assumed) , report its measured IC50.
Key: 64.1

Exercise: Given the entry CC[C@H](C)[C@H](N)C(=O)N[C@@H](Cc1c[nH]cn1)C(=O)N[C@@H](C)C(=O)O [Ile-His-Ala] (H-Ile-His-Ala-OH; N-terminus and C-terminus assumed) , report its measured IC50.
Key: 394

---

- Assay system: Angiotensin Converting Enzyme (Homo sapiens)
- Measurement description: ACE inhibitory activity with Hippuryl-His-Leu substrate, absorbance at 228 nm
- Type: biochemical
- Condition set: peptides having Met-Ala-Pro as a partial structure, same method as Example 2; Table 2
Where a SMILES comes first, the peptide text is derived from it.
Property measured: IC50
Field note: include the unit after the figure.

Exercise: Given the entry CSCC[C@H](NC(=O)[C@@H](N)CCCNC(=N)N)C(=O)N[C@@H](C)C(=O)N1CCC[C@H]1C(=O)O [Arg-Met-Ala-Pro] (H-RMAP-OH; N-terminus and C-terminus assumed) , report its measured IC50.
Key: 24 µM

Exercise: Given the entry CSCC[C@H](N)C(=O)N[C@@H](C)C(=O)N1CCC[C@H]1C(=O)N1CCC[C@H]1C(=O)O [Met-Ala-Pro-Pro] (H-MAPP-OH; N-terminus and C-terminus assumed) , report its measured IC50.
Key: 28.3 µM

Exercise: Given the entry CSCC[C@H](NC(=O)[C@@H](N)CC(C)C)C(=O)N[C@@H](C)C(=O)N1CCC[C@H]1C(=O)O [Leu-Met-Ala-Pro] (H-LMAP-OH; N-terminus and C-terminus assumed) , report its measured IC50.
Key: 27.9 µM
